Reported MIC by item:
Test system: Mycobacterium tuberculosis
assay notes: Antimicrobial activity against Mycobacterium tuberculosis H37Rv after 21 days by micro-broth dilution method
Assay type: functional
condition info: 504 h
Write it as a number; the unit µM goes unstated.

{"molecule": "O=C1CC(N2CCc3ccccc3C2)C(=O)N1c1ccccc1 (stereo unspecified)", "assay readout": "MIC", "display unit": "µM", "assay value": 8.2}
{"molecule": "Oc1cc(Cl)ccc1Oc1ccc(Cl)cc1Cl", "assay readout": "MIC", "display unit": "µM", "assay value": 34.5}
{"molecule": "NNC(=O)c1ccncc1", "assay readout": "MIC", "display unit": "µM", "assay value": 0.4}
{"molecule": "O=C1CC(N2CCN(C3c4ccccc4-c4ccccc43)CC2)C(=O)N1c1ccccc1 (stereo unspecified)", "assay readout": "MIC", "display unit": "µM", "assay value": 94.4}
{"molecule": "O=C1CC(c2c3c([N+](=O)[O-])cc([N+](=O)[O-])cc3c3ccccn23)C(=O)N1c1ccccc1 (stereo unspecified)", "assay readout": "MIC", "display unit": "µM", "assay value": 46.5}

Lab book: MIC of O=C1CC(N2CCN(C3c4ccccc4-c4ccccc43)CC2)C(=O)N1Cc1ccccc1 (stereo unspecified) noted as 91.4

Hey, just so you know, these numbers are from ChEMBL document CHEMBL3098007.
